# log10 IC50 per entry
tested.on: KAT6A (Homo sapiens, UniProt Q92794)
Construct: Recombinant human His-tagged Kat6a protein (amino acids 194-810); His
Sequence (Q92794 194-810): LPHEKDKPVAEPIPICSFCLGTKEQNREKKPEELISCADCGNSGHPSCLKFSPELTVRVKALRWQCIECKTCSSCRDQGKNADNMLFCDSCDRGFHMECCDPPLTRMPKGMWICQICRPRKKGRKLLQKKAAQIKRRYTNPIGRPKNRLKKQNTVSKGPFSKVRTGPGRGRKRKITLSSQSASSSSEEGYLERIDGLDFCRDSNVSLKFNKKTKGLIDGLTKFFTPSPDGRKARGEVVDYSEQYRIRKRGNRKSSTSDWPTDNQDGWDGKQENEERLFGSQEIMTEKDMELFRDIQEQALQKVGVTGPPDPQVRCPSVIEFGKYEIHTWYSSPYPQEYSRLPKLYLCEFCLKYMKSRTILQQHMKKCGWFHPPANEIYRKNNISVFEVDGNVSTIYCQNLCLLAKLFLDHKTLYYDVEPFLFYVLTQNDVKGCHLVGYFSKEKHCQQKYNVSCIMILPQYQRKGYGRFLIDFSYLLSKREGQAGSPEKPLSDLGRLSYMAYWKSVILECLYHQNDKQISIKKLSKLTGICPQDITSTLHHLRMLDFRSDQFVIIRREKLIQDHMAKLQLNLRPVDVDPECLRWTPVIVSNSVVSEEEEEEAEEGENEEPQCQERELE
method.summary: Kat6a activity assay (TR-FRET, acetylation of biotinylated histone H4 peptide)
recorded.conditions: recombinant human His-tagged Kat6a (amino acids 194-810), 60 mins at 22° C., read-out: KAT6A-DPF/HAT domain IC50 [mol/l] (arithmetic mean)
A value of 2 here means IC50 of 100 in µM, since values are log10.

Consider the reported log10 IC50 for these molecules:
• O=C(NS(=O)(=O)c1ccccc1)c1cc2c(F)cc(C3CC3)cc2o1 = -1.15
• CC(C)(C)c1ccc(OC2CC2)c(S(=O)(=O)NC(=O)c2cc3c(F)cc(C4CC4)cc3o2)c1 = -2.45
• CCOc1ccccc1S(=O)(=O)NC(=O)c1cc2ccc(C(C)C)cc2o1 = -0.22
• CCOc1ccc(C(C)CC)cc1S(=O)(=O)NC(=O)c1cc2c(F)cc(C3CC3)cc2o1 (stereo not shown) = -2.74

The reported log10 IC50 of the molecule "CC(C)(C)c1ccc(OCC2CC2)c(S(=O)(=O)NC(=O)c2cc3c(F)cc(C4CC4)cc3o2)c1" was -2.53

Entry "CCOc1cc(F)ccc1S(=O)(=O)NC(=O)c1cc2c(F)cc(C3CC3)cc2o1" , log10 IC50 reported as -1.43

// sample "CC(C)c1ccc2cc(C(=O)NS(=O)(=O)c3ccccc3Cl)oc2c1" , its log10 IC50 was 0.13

* * *

tested.on: KAT6A (Homo sapiens, UniProt Q92794)
Construct: Recombinant human His-tagged Kat6a protein (amino acids 194-810); His
method.summary: Kat6a activity assay (TR-FRET, acetylation of biotinylated histone H4 peptide)
recorded.conditions: recombinant human His-tagged Kat6a (amino acids 194-810), 60 mins at 22° C., read-out: KAT6A-DPF/HAT domain IC50 [mol/l] (arithmetic mean)
Param label: returns true (1) when IC50 < 10 nM, returns false (0) otherwise, including exact equality.

Worked examples, 3 compounds total:
- CCOc1ccc(C(C)C)cc1S(=O)(=O)NC(=O)c1cc2c(F)cc(C3CC3)cc2o1: true (1)
- N#Cc1ccc2cc(C(=O)NS(=O)(=O)c3ccccc3-c3ccccc3)oc2c1: false (0)
- O=C(NS(=O)(=O)c1ccccc1OC1CC1)c1cc2c(F)cc(C3CC3)cc2o1: false (0)

Task item: Field: below-cutoff. Rule: recorded IC50 strictly less than 10 nM. Subject: "CC(C)(C)c1ccc(OCC(F)(F)F)c(S(=O)(=O)NC(=O)c2cc3c(F)cc(C4CC4)cc3o2)c1"
Reply: true (1)

Task item: Consider the compound "Cc1ccc2cccc(S(=O)(=O)NC(=O)c3cc4c(N(C)C)cc(C5CC5)cc4o3)c2n1" . Is its IC50 strictly less than 10 nM?
Reply: false (0)

* * *

Measured IC50 values are reported for all entries that follow.
tested.on: KAT6A (Homo sapiens)
Construct: Recombinant human His-tagged Kat6a protein (amino acids 194-810); His
method.summary: Kat6a activity assay (TR-FRET, acetylation of biotinylated histone H4 peptide)
recorded.conditions: recombinant human His-tagged Kat6a (amino acids 194-810), 60 mins at 22° C., read-out: KAT6A-DPF/HAT domain IC50 [mol/l] (arithmetic mean)
# unit: µM | format: bare number

Some solved cases for reference:
- O=C(NS(=O)(=O)c1ccccc1-c1ccccc1)c1cc2c(OC(F)F)cc(C3CC3)cc2o1: 0.0267
- COc1ccc(C(C)(C)C)cc1S(=O)(=O)NC(=O)c1cc2c(F)cc(C3CC3)cc2o1: 0.00331
- Cc1cc(C)c2cc(C(=O)NS(=O)(=O)c3ccccc3-c3ccccc3)oc2c1: 0.0905
- Cc1ccc2cc(C(=O)NS(=O)(=O)c3ccccc3-c3ccccc3)oc2c1: 0.882
- CCOc1ccccc1S(=O)(=O)NC(=O)c1oc2cc(C)ccc2c1C: 0.827

# evaluate next
# IC50 measured on KAT6A (Homo sapiens) for item "Cc1cc(C)c2cc(C(=O)NS(=O)(=O)c3cccc4ccc(C)nc34)oc2c1" = 0.0271

Value source: patent US20240287048A1
